# assay_method_text: Half life in Sprague-Dawley rat at 50 mg/kg, ip measured after 0.083 to 24 hrs by LC-MS/MS analysis
# Assay type: ADME, organism-based
# measurement_context: in vivo
reported_metric: half-life
Please report the result as a number followed by the unit.

State the recorded half-life for this entry: Cc1ccc(-n2nc3c(=O)n(CCCC(=O)NCCCCCCCCNc4cccc5c4C(=O)N(C4CCC(=O)NC4=O)C5=O)nc(C)c3c2C)cc1 (stereo unspecified)
5.11 h

###

# System: SW480
# assay_method_text: Antiproliferative activity against human SW480 cells incubated for 72 hrs by CCK8 assay
# measurement_context: SW480, 72 h
IC50 less than 60 µM is rule met; IC50 greater than or equal to 60 µM is rule not met.

| compound | class_label |
| --- | --- |
| Cc1ccc(-n2nc3c(=O)n(CCCC(=O)NCCCCCNc4cccc5c4C(=O)N(C4CCC(=O)NC4=O)C5=O)nc(C)c3c2C)cc1 (stereo unspecified) | rule met |
| Cc1ccc(-n2nc3c(=O)n(CCCC(=O)NCCCOCCOCCOCCCNc4cccc5c4C(=O)N(C4CCC(=O)NC4=O)C5=O)nc(C)c3c2C)cc1 (stereo unspecified) | rule met |
| Cc1ccc(-n2nc3c(=O)n(CCCC(=O)NCCCNc4cccc5c4C(=O)N(C4CCC(=O)NC4=O)C5=O)nc(C)c3c2C)cc1 (stereo unspecified) | rule not met |
| Cc1ccc(-n2nc3c(=O)n(CCCC(=O)NCCCCNc4cccc5c4C(=O)N(C4CCC(=O)NC4=O)C5=O)nc(C)c3c2C)cc1 (stereo unspecified) | rule not met |
| Cc1ccc(-n2nc3c(=O)n(CCCC(=O)NCCCCCCCCNc4cccc5c4C(=O)N(C4CCC(=O)N(C)C4=O)C5=O)nc(C)c3c2C)cc1 (stereo unspecified) | rule not met |
| Cc1ccc(-n2nc3c(=O)n(CCCC(=O)NCCCCCCCCNc4cccc5c4C(=O)N(C4CCC(=O)NC4=O)C5=O)nc(C)c3c2C)cc1 (stereo unspecified) | rule met |
| Cc1ccc(-n2nc3c(=O)n(CCCC(=O)NCCCCCCCNc4cccc5c4C(=O)N(C4CCC(=O)NC4=O)C5=O)nc(C)c3c2C)cc1 (stereo unspecified) | rule met |
| Cc1ccc(-n2nc3c(=O)n(CCCC(=O)NCCCCCCNc4cccc5c4C(=O)N(C4CCC(=O)NC4=O)C5=O)nc(C)c3c2C)cc1 (stereo unspecified) | rule met |

Decide: IC50 of Cc1ccc(-n2nc3c(=O)n(CCCC(=O)NCCOCCOCCNc4cccc5c4C(=O)N(C4CCC(=O)NC4=O)C5=O)nc(C)c3c2C)cc1 (stereo unspecified) strictly below 60 µM?
rule met

Moving on to the next compound: Cc1ccc(-n2nc3c(=O)n(CCCC(=O)NCC(C)c4ccccc4)nc(C)c3c2C)cc1 (stereo unspecified)
rule met

Moving on to the next compound: Cc1ccc(-n2nc3c(=O)n(CCCC(=O)NCCCCCCCCNc4ccc5c(c4)C(=O)N(C4CCC(=O)NC4=O)C5=O)nc(C)c3c2C)cc1 (stereo unspecified)
rule met

###

# assay_method_text: Clearance in Sprague-Dawley rat at 50 mg/kg, ip measured after 0.083 to 24 hrs by LC-MS/MS analysis
# Assay type: ADME, organism-based
# measurement_context: in vivo
reported_metric: CL/F (mL/min/kg)
One number for each entry, in mL/min/kg.

State the recorded CL/F for this entry: Cc1ccc(-n2nc3c(=O)n(CCCC(=O)NCCCCCCCCNc4cccc5c4C(=O)N(C4CCC(=O)NC4=O)C5=O)nc(C)c3c2C)cc1 (stereo unspecified)
179
